# Lookup of reported koff keyed by entry
Assayed system: human IL-1beta (human, UniProt P01584 117-269)
Test protocol: SPR (BIAcore); antibody captured by anti-Fc, IL-1beta injected
Reported metric: koff (s⁻¹)

Binder	Reported metric	Measured result
huH34-3 (antibody, V domains shown, VH = 11 and VL = 16 read by analogy with huH34-2) VH: QVQLVQSGAEVKKPGASVKVSCKASGYTFTGYYMHWVRQAPGQGLEWIGYISSYSAFTTYNQKFRGRATFTVDTSISTAYMELSRLRSDDTAVYYCVRSDYYGTSLYWGQGTLVTVSS VL: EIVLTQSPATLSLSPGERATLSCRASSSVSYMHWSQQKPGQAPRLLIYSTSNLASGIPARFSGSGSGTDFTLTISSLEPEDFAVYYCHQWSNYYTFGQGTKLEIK	koff	0.000302
huH34-2 (antibody, V domains shown, Humanized antibody expressed in HEK cells; also called huH34-2 bivalent; humanized version of H34) VH: QVQLVQSGAEVKKPGASVKVSCKASGYTFTGYYMHWVRQAPGQGLEWIGYISSYNAFTTYNQKFRGRATFTVDTSISTAYMELSRLRSDDTAVYYCVRSDYYGTSLYWGQGTLVTVSS VL: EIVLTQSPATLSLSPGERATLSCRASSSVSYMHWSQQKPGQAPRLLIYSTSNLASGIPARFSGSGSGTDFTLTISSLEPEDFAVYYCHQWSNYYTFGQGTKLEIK	koff	0.00011
H34 + C52aS mutations (antibody, V domains shown) VH: EVQLQQSGPELVKTGASVKISCKASGYSFTGYYMHWVKQSHGKSLEWIGYISSYNAFTTYNQRFRGKATFTVDTSSSTAYMQFNSLTSEDSAVYYCVRSDYYGTSLYWGQGTTLTVSS VL: QIVLTQSPAIMSASLGEEITLTCSASSSVSYMHWSQQKSGSSPKLLIYSTSNLASGVPSRFSGSGSGTFYSLTISSVEAEDAADYYCHQWSNYYTFGGGTKLEIK	koff	0.000645
